Counter-ions that a name gives are not always drawn.
What follows is a collection of IC50 values obtained with UniProtKB Q9Y233.
Sequence (Q9Y233 whole entry): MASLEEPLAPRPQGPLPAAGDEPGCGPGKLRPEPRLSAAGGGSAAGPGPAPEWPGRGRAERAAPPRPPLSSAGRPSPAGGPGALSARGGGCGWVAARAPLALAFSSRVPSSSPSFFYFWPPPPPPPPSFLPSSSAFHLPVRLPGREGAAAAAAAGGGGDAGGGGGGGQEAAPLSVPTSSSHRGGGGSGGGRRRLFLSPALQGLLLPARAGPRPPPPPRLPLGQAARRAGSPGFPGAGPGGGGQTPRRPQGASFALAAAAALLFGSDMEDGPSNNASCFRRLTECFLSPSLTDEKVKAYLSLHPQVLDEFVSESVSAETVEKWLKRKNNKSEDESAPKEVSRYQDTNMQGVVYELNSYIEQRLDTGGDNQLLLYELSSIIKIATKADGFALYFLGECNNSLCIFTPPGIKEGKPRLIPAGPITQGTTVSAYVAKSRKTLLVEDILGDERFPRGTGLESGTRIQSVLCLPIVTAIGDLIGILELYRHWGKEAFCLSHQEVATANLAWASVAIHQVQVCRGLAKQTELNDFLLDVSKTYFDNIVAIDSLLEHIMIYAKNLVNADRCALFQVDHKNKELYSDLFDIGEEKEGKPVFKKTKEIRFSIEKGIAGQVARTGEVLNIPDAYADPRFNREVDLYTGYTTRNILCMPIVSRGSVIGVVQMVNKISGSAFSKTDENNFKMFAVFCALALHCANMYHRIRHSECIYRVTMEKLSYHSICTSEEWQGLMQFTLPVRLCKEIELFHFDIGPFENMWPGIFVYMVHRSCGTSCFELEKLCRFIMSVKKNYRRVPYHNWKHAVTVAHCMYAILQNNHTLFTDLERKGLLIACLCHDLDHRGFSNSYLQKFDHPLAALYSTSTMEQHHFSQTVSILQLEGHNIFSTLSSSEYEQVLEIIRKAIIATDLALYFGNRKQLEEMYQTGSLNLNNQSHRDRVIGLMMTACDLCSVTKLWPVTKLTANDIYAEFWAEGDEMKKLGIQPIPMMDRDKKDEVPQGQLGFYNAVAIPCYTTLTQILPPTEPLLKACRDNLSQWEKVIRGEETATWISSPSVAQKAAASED

Use the examples below as a reference point.
| COMPOUND | RESULT |
| --- | --- |
| COc1cnccc1-c1ccnc2c1C(=O)N(CCc1ccc3ccccc3n1)C2 | 100 to 200 nM |
| O=C1c2c(-c3cncnc3)ccnc2CN1CCc1ccc2ccccc2n1 | < 100 nM |

Asked: IC50 of CCc1csc(CCN2Cc3nccc(-c4ccncc4)c3C2=O)n1 on UniProtKB Q9Y233?
Given back: < 100 nM

Asked: IC50 of O=C1c2c(cccc2N2CCOCC2)CN1CCc1nc2ccccc2n1C(F)F [compound 449, trifluoroacetate] on UniProtKB Q9Y233?
Given back: 200 to 500 nM

Asked: IC50 of Cn1nccc1-c1ccnc2c1C(=O)N(CCc1nc3ccccc3s1)C2 [compound 432, trifluoroacetate] on UniProtKB Q9Y233?
Given back: 100 to 200 nM

Asked: IC50 of O=C1c2c(N3CC4COCC4C3)ccnc2CN1CCc1ccc2ccccc2n1 (centres unmarked) on UniProtKB Q9Y233?
Given back: < 100 nM

Asked: IC50 of Cc1ncc(-c2ccnc3c2C(=O)N(CCc2ccc4ccccc4n2)C3)s1 on UniProtKB Q9Y233?
Given back: < 100 nM

Asked: IC50 of COc1ccc(-c2ccncc2)c2c1CN(CCc1cn3ccccc3n1)C2=O on UniProtKB Q9Y233?
Given back: < 100 nM
